SYSTEM_UNDER_TEST: Porcine Ventricle myofibrils (left ventricle of Yucatan minipigs) (Sus scrofa, UniProt P79293)
Construct: Myofibrils from porcine cardiac muscle was isolated from the left ventricle of Yucatan minipigs; tissue Exemplar Genetics; host or cells: left ventricle of Yucatan minipigs
Sequence (P79293 whole entry): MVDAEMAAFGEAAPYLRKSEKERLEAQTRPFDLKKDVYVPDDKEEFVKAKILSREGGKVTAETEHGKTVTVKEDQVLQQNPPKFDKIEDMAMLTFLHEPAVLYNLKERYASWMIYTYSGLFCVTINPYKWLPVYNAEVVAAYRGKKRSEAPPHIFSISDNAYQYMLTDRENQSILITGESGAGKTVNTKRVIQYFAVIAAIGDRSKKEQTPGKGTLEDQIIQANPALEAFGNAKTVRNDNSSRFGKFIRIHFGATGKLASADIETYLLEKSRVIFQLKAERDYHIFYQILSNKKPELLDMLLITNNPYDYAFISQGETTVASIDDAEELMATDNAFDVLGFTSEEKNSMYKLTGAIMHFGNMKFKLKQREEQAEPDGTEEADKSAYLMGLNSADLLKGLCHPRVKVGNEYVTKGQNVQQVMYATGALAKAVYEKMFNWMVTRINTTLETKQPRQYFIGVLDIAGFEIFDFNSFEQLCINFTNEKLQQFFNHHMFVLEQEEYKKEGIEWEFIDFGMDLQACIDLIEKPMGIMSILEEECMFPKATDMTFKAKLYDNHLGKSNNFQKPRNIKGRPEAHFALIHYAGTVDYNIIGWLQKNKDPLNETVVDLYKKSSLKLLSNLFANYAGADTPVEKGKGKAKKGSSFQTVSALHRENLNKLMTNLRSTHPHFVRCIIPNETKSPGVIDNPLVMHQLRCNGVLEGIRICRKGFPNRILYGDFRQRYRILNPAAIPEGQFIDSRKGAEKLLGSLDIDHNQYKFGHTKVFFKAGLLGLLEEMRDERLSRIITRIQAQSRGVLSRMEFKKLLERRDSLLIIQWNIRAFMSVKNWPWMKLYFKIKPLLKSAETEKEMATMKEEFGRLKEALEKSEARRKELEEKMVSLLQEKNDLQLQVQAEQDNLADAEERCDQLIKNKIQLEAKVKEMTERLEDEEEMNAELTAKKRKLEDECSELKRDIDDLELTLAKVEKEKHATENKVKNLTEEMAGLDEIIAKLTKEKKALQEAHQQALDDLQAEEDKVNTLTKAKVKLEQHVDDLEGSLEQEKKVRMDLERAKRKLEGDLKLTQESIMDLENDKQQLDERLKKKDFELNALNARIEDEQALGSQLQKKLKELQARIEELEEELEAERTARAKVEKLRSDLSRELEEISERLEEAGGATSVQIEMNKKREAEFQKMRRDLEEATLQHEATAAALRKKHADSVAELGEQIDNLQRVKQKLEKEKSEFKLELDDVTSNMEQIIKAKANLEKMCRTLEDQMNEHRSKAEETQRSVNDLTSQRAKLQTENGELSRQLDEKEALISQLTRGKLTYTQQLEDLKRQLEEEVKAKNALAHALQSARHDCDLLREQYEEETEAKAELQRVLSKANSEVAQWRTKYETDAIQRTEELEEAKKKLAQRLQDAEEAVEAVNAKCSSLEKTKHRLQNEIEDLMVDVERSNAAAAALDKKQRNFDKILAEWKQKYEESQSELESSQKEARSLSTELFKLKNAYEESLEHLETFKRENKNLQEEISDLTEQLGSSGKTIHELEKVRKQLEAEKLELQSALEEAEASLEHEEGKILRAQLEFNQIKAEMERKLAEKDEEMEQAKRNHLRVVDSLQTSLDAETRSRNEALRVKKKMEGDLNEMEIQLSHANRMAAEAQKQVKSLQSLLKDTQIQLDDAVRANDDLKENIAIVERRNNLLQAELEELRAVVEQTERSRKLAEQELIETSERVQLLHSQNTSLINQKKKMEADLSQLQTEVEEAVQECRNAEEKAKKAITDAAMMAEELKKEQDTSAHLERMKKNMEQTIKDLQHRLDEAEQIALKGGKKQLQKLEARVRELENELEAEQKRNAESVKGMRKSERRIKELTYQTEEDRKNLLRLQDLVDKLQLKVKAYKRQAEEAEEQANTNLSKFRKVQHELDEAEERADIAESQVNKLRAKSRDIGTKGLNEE
ASSAY_COMMENT: Myofibril ATPase assay (PK/LDH NADH-coupled), ventricle myofibrils
Assay type: biochemical
EXPERIMENTAL_PARAMETERS: Table 8
Can you tell me Porcine Ventricle IC25 for the items I'm about to list?
Respond with the bare value in nM.

What value of measured Porcine Ventricle IC25 is listed for Cc1ncc(F)c([C@@H](C)NC(=O)CN2Cc3c(ccc(F)c3F)NC2=O)n1 [Compound B346] ?
1630

Next up: N#Cc1cc(F)c2c(c1)OC[C@@H]2NC(=O)CN1Cc2c(ccc(F)c2F)NC1=O [Compound B124]
1870

Do the same for Cc1cc(C(C)NC(=O)CN2Cc3c(ccc(F)c3F)NC2=O)ncc1Cl (centres unmarked) [Compound B70] please
1114

And then C[C@H](NC(=O)CN1C(=O)Nc2ccccc2[C@H]1C)c1ncc(F)cc1F [Compound B161] , what is it?
45800

Moving on to CNC(=O)N1CC2(C1)c1cc(F)ccc1NC(=O)N2CC(=O)N[C@@H](C)c1ncc(C#N)cc1F [Compound B254]
100000

Also need N#Cc1cnc2c(c1)OCC2NC(=O)CN1Cc2c(ccc(F)c2F)NC1=O (single isomer, unassigned) [Compound B65] , thanks.
166.7

Request: Cc1cc(C#N)nnc1[C@H](C)NC(=O)CN1C(=O)Nc2ccc(F)cc2C12CC2 [Compound B329]
420

Would you kindly repeat that for N#Cc1cnc2c(c1)OC[C@@H]2NC(=O)CN1C(=O)Nc2cccc(C#N)c2C12CC2 [Compound B311] ?
86790

###

Test system: Rabbit Skeletal myofibrils (rabbit psoas muscle)
ASSAY_COMMENT: Myofibril ATPase assay (PK/LDH NADH-coupled), skeletal myofibrils
Assay type: biochemical
EXPERIMENTAL_PARAMETERS: Table 7
ASSAY_READOUT: Rabbit Psoas IC25 (nM)
Number only, in nM; omit the unit.

For O=C(CN1C(=O)Nc2cccnc2C12CC2)N[C@@H](CO)c1ccc(F)cc1F [Compound N44] , what is its reported Rabbit Psoas IC25?
565.8

Subsequent entry: `C[C@H](NC(=O)CN1C(=O)Nc2cccnc2C12COC2)c1ncc(F)cc1F`
5318

Again, but for `C[C@H](NC(=O)[C@@H](Cc1ccccc1)N1Cc2nc(F)ccc2NC1=O)c1ccc(F)cc1F`
90250

Now the compound `C[C@H](NC(=O)[C@@H](C)N1Cc2c(ccnc2Cl)NC1=O)c1ccc(F)cc1F`
22.8

###

For each of the compounds below, state its Porcine Atria IC25.
Test system: Porcine Atria myofibrils
ASSAY_COMMENT: Myofibril ATPase assay (PK/LDH NADH-coupled), atria myofibrils
Type: biochemical
EXPERIMENTAL_PARAMETERS: Table 7
Answer in µM, number only, no unit symbol.

Porcine Atria IC25 for CC(C(=O)N[C@@H](C)c1ccc(F)cc1F)N1Cc2nc(F)ccc2NC1=O (some centres unmarked) [Compound N110] ?
0.19

Proceed to N#Cc1ccc([C@@H](CO)NC(=O)CN2C(=O)Nc3cccnc3C23CC3)c(F)c1 [Compound N36]
8.01

Request: Cc1c(F)cnc2c1CN(CC(=O)N[C@H](C)c1ncc(F)cc1F)C(=O)N2 [Compound N52]
98.42

Another compound to look at: C[C@H](NC(=O)CN1C(=O)Nc2cccnc2C12CC2)c1ccc(C#N)cn1 [Compound N17]
75.12

Follow-up entry: C[C@@H](NC(=O)CN1Cc2c(ccnc2C(F)(F)F)NC1=O)c1ccc(C#N)cc1F [Compound N73]
100.00

// query: N#Cc1ccc([C@H](CO)NC(=O)CN2Cc3c(ccnc3C#N)NC2=O)c(F)c1 [Compound N32]
100.00

Now this one: O=C(CN1C(=O)Nc2cccnc2C12CC2)N[C@H]1COc2cc(F)cc(F)c21 [Compound N34]
8.44

And C[C@H](NC(=O)CN1Cc2c(ccnc2C#N)NC1=O)c1ccc(C#N)cc1F [Compound N23] ?
0.28

###

Test system: Porcine Atria myofibrils
ASSAY_COMMENT: Myofibril ATPase assay (PK/LDH NADH-coupled), atria myofibrils
Assay type: biochemical
EXPERIMENTAL_PARAMETERS: Table 8
Rule: measured Porcine Atria IC25 below 2000 nM gets satisfied; anything equal to or greater than 2000 nM gets not satisfied.

Hello, is Porcine Atria IC25 of the following compound strictly smaller than 2000 nM? `C[C@H](NC(=O)CN1Cc2c(F)cc(Cl)cc2NC1=O)c1ccc(C#N)cc1F`
satisfied

Now this one: `Cc1ncnc([C@H](C)NC(=O)CN2Cc3c(ccc(F)c3F)NC2=O)c1F`
satisfied

Try `C[C@H](NC(=O)CN1C(=O)Nc2ccccc2C1(C)C)c1ccc(F)cc1F` next.
satisfied

Same question, `C[C@H](NC(=O)CN1Cc2cc(F)ccc2NC1=O)c1ncc(C#N)cc1F` this time
satisfied

Same thing, different compound: `N#Cc1cnc2c(c1)OC[C@@H]2NC(=O)CN1C(=O)Nc2ccc(F)c(F)c2C12CC2`
satisfied

Same for `C[C@H](C(=O)N[C@H](C)c1ccc(F)cc1F)N1Cc2cc(F)ccc2NC1=O`
not satisfied

Continue with `C[C@@H](NC(=O)CN1Cc2cc(F)cc(F)c2NC1=O)c1ccc(C#N)cc1F`
not satisfied

Likewise for `N#Cc1cnc2c(c1)CC[C@@H]2NC(=O)CN1Cc2c(ccc(F)c2F)NC1=O` ?
not satisfied

Same for `C[C@@H](NC(=O)CN1Cc2c(C#N)cccc2NC1=O)c1ncc(C#N)cc1F`
satisfied

Try this compound next: `Cc1ncc(C#N)nc1[C@H](C)NC(=O)CN1Cc2c(ccc(F)c2F)NC1=O`
satisfied

Repeat for the following compound: `O=C(CN1Cc2cc(F)ccc2NC1=O)N[C@@H](CO)c1ncc(F)cc1F`
satisfied

What do we get for `N#Cc1c(F)ccc2c1CN(CC(=O)N[C@@H]1COc3cc(F)cc(F)c31)C(=O)N2` ?
satisfied

Entry to check: `C[C@@H](NC(=O)CN1Cc2cc(C#N)ccc2NC1=O)c1ncc(C#N)cc1F`
not satisfied

Do the same for `C[C@@H](NC(=O)CN1Cc2c(ccc(F)c2F)NC1=O)c1ncc(C#N)cn1` please
satisfied

Consider next the compound `COc1cccnc1[C@H](C)NC(=O)CN1Cc2c(ccc(F)c2F)NC1=O` in the same way.
not satisfied

Input `O=C(CN1Cc2c(ccc(F)c2F)NC1=O)N[C@H]1COc2ccc(F)cc2C1`
satisfied

###

Task for the reader: assign each of the following compounds its reported Porcine Atria IC25.
Tested on: Porcine Atria myofibrils
ASSAY_COMMENT: Myofibril ATPase assay (PK/LDH NADH-coupled), atria myofibrils
Format: biochemical
EXPERIMENTAL_PARAMETERS: Table 8
Answer with a number only, understood to be in nM.

Please look up its Porcine Atria IC25: CCc1cc(F)cnc1[C@H](C)NC(=O)CN1Cc2c(ccc(F)c2F)NC1=O [Compound B15]
100000

And C[C@H](NC(=O)CN1Cc2c(ccc(F)c2F)NC1=O)c1ncncc1F [Compound B110] ?
40

// repeat for C[C@H](NC(=O)CN1Cc2c(ccc(F)c2F)NC1=O)c1ncnc(C#N)c1F [Compound B342] and report
930

Also check C[C@@H](NC(=O)CN1Cc2c(ccc(F)c2F)NC1=O)c1ccc(C#N)nn1 [Compound B16]
230

Could you do the same for Cc1cc(C#N)nnc1[C@@H](C)NC(=O)CN1C(=O)Nc2ccc(F)cc2C12CC2 [Compound B328] , please?
1530

Field entry: O=C(CN1Cc2c(ccc(F)c2F)NC1=O)NC1COCc2cc(F)ccc21 (single isomer, unassigned) [Compound B76]
390

Query Cc1cnc([C@H](C)NC(=O)CN2Cc3cc(F)ccc3NC2=O)c(F)c1 [Compound B195] next
100000

How about this compound: C[C@@H](NC(=O)CN1Cc2c(ccc(F)c2F)NC1=O)c1cc2c(cn1)OCCN2 [Compound B364]
20410

Proceed to N#Cc1c(F)ccc2c1CN(CC(=O)N[C@H]1COc3cc(F)cc(F)c31)C(=O)N2 [Compound B140]
1100

Next compound: CC(C)C[C@@H](C(=O)N[C@H](C)c1ccc(F)cc1F)N1Cc2cc(F)ccc2NC1=O [Compound B66]
100000

Can you handle C[C@@H](NC(=O)CN1Cc2c(ccc(F)c2F)NC1=O)c1ncncc1F [Compound B109] next?
12190

Try this compound too: C[C@H](NC(=O)CN1Cc2cc(F)cc(C#N)c2NC1=O)c1ccc(C#N)cc1F [Compound B27]
2100

Param item: C[C@H](NC(=O)[C@H](CC1CC1)N1Cc2c(ccc(F)c2F)NC1=O)c1ccc(F)cc1F [Compound B48]
100000

What do you get for C[C@@H](NC(=O)CN1Cc2c(ccc(F)c2F)NC1=O)c1cc2c(cn1)OCCN2C [Compound B73] ?
1220

Follow-up entry: C[C@H](NC(=O)[C@@H](C)N1Cc2c(ccc(F)c2F)NC1=O)c1ccc(F)cc1F [Compound B236]
30

Let us now turn to C[C@@H]1c2ccccc2NC(=O)N1CC(=O)N[C@H](C)c1ncc(F)cc1F [Compound B158]
100000
